Test: Compound concentration in gall bladder, LC-MS/MS, 8 h post dose
Format: in vivo
Conditions: male, C57BL/6, mouse, with contents, mice, 30 mg/kg, gallbladder homogenate, read-out: Mean Example Gallbladder Concentration
readout-kind: concentration at 8 h (nM)

CN(C(=O)C1(OCc2cc(Cl)c(CCCCCNC(=O)NC[C@H](O)[C@@H](O)[C@H](O)[C@H](O)CO)cc2Cl)CC1)c1ccccc1OC1CC1 ... 700
O=C(N1CCN(C2CC2)c2ccccc21)C1(NCc2cc(Cl)c(O)cc2Cl)CC1 ... 600

I = C[C@@H](NC(=O)[C@@H](C)NC(=O)[C@@H](C)NC(=O)CCCCc1cc(Cl)c(CN2CSC[C@H]2C(=O)N2CCN(C3CC3)c3ccccc32)cc1Cl)C(=O)O
II = O=C(O)CNC(=O)CNC(=O)CNC(=O)CCCCc1cc(Cl)c(CN2CSC[C@H]2C(=O)N2CCN(C3CC3)c3ccccc32)cc1Cl
III = O=C(N1CCN(C2CC2)c2ccccc21)C1(NCc2cc(Cl)cc(O)c2Cl)CC1
IV = O=C(CCCCc1cc(Cl)c(COC2(C(=O)N3CCN(C4CC4)c4ccccc43)CC2)cc1Cl)NC[C@H](O)[C@@H](O)[C@H](O)[C@H](O)CO
Ask: Put the items in order so that reported concentration at 8 h rises from first to last. # respond with the labels, arranged in the requested order
Result: II, IV, I, III
(II: 600 nM, IV: 900 nM, I: 1730 nM, III: 3300 nM)

----------
Molecular target: human TGR5 (Homo sapiens, UniProt Q8TDU6)
Construct: expressed in transfected cells
Sequence (Q8TDU6 1-330): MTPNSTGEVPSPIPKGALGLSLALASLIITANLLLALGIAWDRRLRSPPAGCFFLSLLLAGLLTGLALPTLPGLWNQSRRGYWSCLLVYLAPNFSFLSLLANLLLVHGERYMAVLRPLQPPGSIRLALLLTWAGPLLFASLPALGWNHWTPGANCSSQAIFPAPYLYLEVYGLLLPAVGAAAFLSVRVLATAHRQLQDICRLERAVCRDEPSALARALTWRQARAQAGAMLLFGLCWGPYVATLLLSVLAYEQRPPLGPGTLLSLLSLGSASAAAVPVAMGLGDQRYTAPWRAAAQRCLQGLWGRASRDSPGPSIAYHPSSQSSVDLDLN
Assay: Cell-based TGR5 assay, HEK293 cells stably expressing human TGR5, cAMP by HTRF
Details: HEK293 cells stably expressing human TGR5, 30 min at 37 C, 0.05 nM to 10 μM, read-out: pEC50 Human TGR5 (converted)
Each entry below lists one item and its recorded EC50 value.

Recorded EC50, per entry:
O=C(c1ncoc1Cc1cc(Cl)ccc1Cl)N1CCN(C2CC2)c2ccccc21 [Example 66] ... 1.26 to 50.1 µM
O=C(C1=C(Oc2cc(Cl)ccc2Cl)CCCC1)N1CCN(C2CC2)c2ccccc21 [Example 29] ... < 0.1 µM

Ask: Give the value of EC50 reported for the following: CN(C[C@H](O)[C@@H](O)[C@H](O)[C@H](O)CO)C(=O)CCCCc1cc(Cl)c(CNC2(C(=O)N3CCN(C4CC4)c4ccccc43)CC2)cc1Cl [Example 219]
Result: < 0.1 µM

Ask: Give the value of EC50 reported for the following: O=C([C@H]1C[C@H](F)CN1Cc1cc(Cl)ccc1C(F)(F)F)N1CCN(C2CC2)c2ccccc21 [Example 264]
Result: 0.126 to 1 µM

----------
Assay: Compound concentration in gall bladder, LC-MS/MS, 8 h post dose
Format: in vivo
Conditions: male, C57BL/6, mouse, with contents, mice, 30 mg/kg, gallbladder homogenate, read-out: Mean Example Gallbladder Concentration
readout-kind: concentration at 8 h (nM)

O=C(NC[C@H](O)[C@@H](O)[C@H](O)[C@H](O)CO)c1ccc(COc2cc(Cl)c(CN3CSC[C@H]3C(=O)N3CCN(C4CC4)c4ccccc43)cc2Cl)cc1 ... 100
O=C(CCCCc1cc(Cl)c(CNC2(C(=O)N3CCN(C4CC4)c4ccccc43)CC2)cc1Cl)NC[C@H](O)[C@@H](O)[C@H](O)[C@H](O)CO ... 100
CN(C[C@H](O)[C@@H](O)[C@H](O)[C@H](O)CO)C(=O)NCCCCOc1cc(Cl)c(CN2CSC[C@H]2C(=O)N2CCN(C3CC3)c3ccccc32)cc1Cl ... 100

I = O=C(N1CCN(C2CC2)c2ccccc21)C1(NCc2cc(Cl)ccc2Cl)CC1
II = O=C(NCCCCCc1cc(Cl)c(CN2CSC[C@H]2C(=O)N2CCN(C3CC3)c3ccccc32)cc1Cl)N1CCN(CP(=O)(O)O)CC1
Ask: Would you mind telling me which has the lower recorded concentration at 8 h between I and II ? Respond with the label that goes with your answer.
Result: I
(I: 30 nM, II: 80 nM)

----------
Target: endogenously expressed TGR5 in NCI H716 (Homo sapiens, UniProt Q8TDU6)
Construct: human caecum carcinoma cell line NCI-H716 which endogenously expresses human TGR5; endogenous in cells; host or cells: NCI-H716
Sequence (Q8TDU6 1-330): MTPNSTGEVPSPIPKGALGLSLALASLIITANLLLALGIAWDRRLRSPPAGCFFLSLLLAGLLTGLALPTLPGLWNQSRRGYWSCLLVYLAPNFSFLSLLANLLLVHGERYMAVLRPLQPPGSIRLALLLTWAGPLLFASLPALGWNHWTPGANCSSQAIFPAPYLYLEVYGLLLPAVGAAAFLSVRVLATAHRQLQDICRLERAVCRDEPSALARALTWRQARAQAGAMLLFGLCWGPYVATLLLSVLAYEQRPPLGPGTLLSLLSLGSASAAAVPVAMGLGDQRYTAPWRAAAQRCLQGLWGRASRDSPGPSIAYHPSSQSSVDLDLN
Experiment: Cell-based TGR5 assay, NCI-H716 cells endogenously expressing human TGR5, cAMP by HTRF
Settings: 30 min at 37 C, 22 nM to 50 μM, read-out: pEC50 endogenously expressed TGR5 in NCI H716 (converted)
Each entry below lists one item and its recorded EC50 value.

Recorded EC50, per entry:
COc1cc(Cl)c(CN2CCC[C@H]2C(=O)N2CCN(C3CC3)c3ccccc32)cc1Cl ... 1260 to 50100 nM
O=C(c1ncoc1Cc1cc(Cl)ccc1Cl)N1CCN(C2CC2)c2ccccc21 ... 1260 to 50100 nM
Cc1cccc(CC2CCCN2C(=O)N2CCN(C3CC3)c3ccccc32)c1 (stereo not shown) ... 1260 to 50100 nM
COc1cccnc1N(C)C(=O)C1(OCc2cc(Cl)ccc2Cl)CC1 ... 1260 to 50100 nM
COc1cc(Cl)c(CNC2(C(=O)N3CCN(C4CC4)c4ccccc43)CC2)cc1Cl ... 126 to 1000 nM
O=C(N1CCN(C2CC2)c2ccccc21)C1(COc2cc(Cl)ccc2Cl)CC1 ... 126 to 1000 nM
O=C(N1CCN(C2CC2)c2ccccc21)C1(OCc2cc(C(F)(F)F)ccc2Cl)CC1 ... < 100 nM
O=C(N1CCN(C2CC2)c2ccccc21)C1(OCc2cc(Cl)ccc2Cl)CCCC1 ... 126 to 1000 nM
CN1CC(OCc2cc(Cl)ccc2Cl)(C(=O)N2CCN(C3CC3)c3ccccc32)C1 ... 1260 to 50100 nM
CN(C[C@H](O)[C@@H](O)[C@H](O)[C@H](O)CO)C(=O)NCCOc1cc(Cl)c(CNC2(C(=O)N3CCN(C4CC4)c4ccccc43)CC2)cc1Cl [Example 185] ... 1260 to 50100 nM

Alright, here's another compound for you.
Ask: Please look at CN(C(=O)C1(OCc2cc(Cl)ccc2Cl)CC1)c1ccccc1OCC1CC1 and tell me its recorded EC50 on endogenously expressed TGR5 in NCI H716 (Homo sapiens, UniProt Q8TDU6).
Result: 126 to 1000 nM

----------
Experiment: Compound plasma concentration, LC-MS/MS, 8 h post dose
Type: in vivo
Conditions: 30 mg/kg, mice below LLOQ / mice in group
readout-kind: Number of Mice with Plasma Concentration < LLOQ

Recorded Number of Mice with Plasma Concentration < LLOQ, per entry:
O=C(N1CCN(C2CC2)c2ccccc21)C1(NCc2cc(Cl)ccc2Cl)CC1 ... 0/8
O=C(N1CCN(C2CC2)c2ccccc21)C1(NCc2cc(Cl)c(O)cc2Cl)CC1 ... 2/8
O=C(NCCCCCc1cc(Cl)c(CN2CSC[C@H]2C(=O)N2CCN(C3CC3)c3ccccc32)cc1Cl)NCP(=O)(O)O ... 7/8

Ask: Give the value of Number of Mice with Plasma Concentration < LLOQ reported for the following: CN(C(=O)C1(OCc2cc(Cl)c(CCCNC(=O)NC[C@H](O)[C@@H](O)[C@H](O)[C@H](O)CO)cc2Cl)CC1)c1ccccc1OC1CC1
Result: 8/8

Ask: Give the value of Number of Mice with Plasma Concentration < LLOQ reported for the following: O=C(OC1(C(=O)N2CCN(C3CC3)c3ccccc32)CC1)c1cc(Cl)ccc1Cl
Result: 2/8

Ask: Give the value of Number of Mice with Plasma Concentration < LLOQ reported for the following: O=C(O)CNC(=O)[C@H](CSSC[C@H](NC(=O)CC[C@H](NC(=O)CCCCc1cc(Cl)c(CN2CSC[C@H]2C(=O)N2CCN(C3CC3)c3ccccc32)cc1Cl)C(=O)O)C(=O)NCC(=O)O)NC(=O)CC[C@H](NC(=O)CCCCc1cc(Cl)c(CN2CSC[C@H]2C(=O)N2CCN(C3CC3)c3ccccc32)cc1Cl)C(=O)O
Result: 8/8
